Tested on: Total ATXN3 (tATXN3) protein
EXPERIMENT: Endogenous Total ATXN3 (tATXN3) Protein Assay (MSD immunoassay of cell lysates)
Type: cell-based
TEST SETTINGS: average IC50, total ATXN3 protein in cell lysate after 48 h with compound (Table 1)
pIC50: −log10 of the molar value.
METRIC: pIC50

What measured pIC50 goes with N[C@@H]1CCCC[C@H]1c1sc2c(NCc3cccs3)cc(Cl)nc2c1-c1ccccc1 ? 6.52 to 7.52

---

System: Total ATXN3 (tATXN3) protein
EXPERIMENT: Endogenous Total ATXN3 (tATXN3) Protein Assay (MSD immunoassay of cell lysates)
Assay type: cell-based
TEST SETTINGS: average IC50, total ATXN3 protein in cell lysate after 48 h with compound (Table 1)
Overview of recorded IC50 for various compounds

MOLECULE SMILES: N[C@@H]1CCCC[C@H]1c1c(I)c2nc(Cl)nc(NCc3ccco3)c2n1C(F)F
METRIC: IC50
RESULT: 300 to 1000 nM
--
MOLECULE SMILES: N[C@H]1CC=CC[C@@H]1c1sc2c(NCc3ccco3)nc(Cl)nc2c1Cl
METRIC: IC50
RESULT: ≤ 30 nM
--
MOLECULE SMILES: N[C@H]1CC=CC[C@@H]1c1sc2c(NCc3ccncc3F)nc(Cl)nc2c1Cl
METRIC: IC50
RESULT: ≤ 30 nM
--
MOLECULE SMILES: N[C@H]1CCC[C@@H]1c1sc2c(NCc3ccccc3)cc(Cl)nc2c1Cl
METRIC: IC50
RESULT: > 1000 nM
--
MOLECULE SMILES: CC#CCNc1cc(Cl)nc2c(Br)c([C@@H]3CC(C)=C(C)C[C@H]3N)sc12
METRIC: IC50
RESULT: 300 to 1000 nM

What measured IC50 goes with Cc1c([C@@H]2CC=CC[C@H]2N)sc2c(NCc3ccsc3)cc(Cl)nc12 ? 30 to 300 nM

What measured IC50 goes with CCOC(=O)C1=CC[C@@H](c2sc3c(NCc4cccs4)cc(Cl)nc3c2C)[C@@H](N)C1 ? 300 to 1000 nM

What measured IC50 goes with N[C@H]1CC=CC[C@@H]1c1sc2c(NCc3ccccc3)nc(Cl)nc2c1Br ? ≤ 30 nM

---

Tested on: Total ATXN3 (tATXN3) protein
EXPERIMENT: Endogenous Total ATXN3 (tATXN3) Protein Assay (MSD immunoassay of cell lysates)
Format: cell-based
TEST SETTINGS: average IC50, total ATXN3 protein in cell lysate after 48 h with compound (Table 1)
METRIC: IC50

MOLECULE SMILES: N[C@H]1CC=CC[C@@H]1c1sc2c(NCc3ccccc3)cc(Cl)nc2c1Cl
IC50: ≤ 0.03 µM

Note: attention shifts to another entry.
What measured IC50 goes with N[C@@H]1COCC[C@H]1c1sc2c(NCc3ccco3)cc(Cl)nc2c1Cl ? 0.03 to 0.3 µM

---

Tested on: Total ATXN3 (tATXN3) protein
EXPERIMENT: Endogenous Total ATXN3 (tATXN3) Protein Assay (MSD immunoassay of cell lysates)
Type: cell-based
TEST SETTINGS: average IC50, total ATXN3 protein in cell lysate after 48 h with compound (Table 1)
Procedure: Endogenous Total ATXN3 (tATXN3) Protein Assay Meso Scale Discovery (MSD) 96-well or 384-well plates were coated overnight at 4° C. with Ataxin 3 mouse monoclonal antibody (Invitrogen, MA3-082) at a concentration of 0.5 μg/mL in PBS (30 μL per well). […] Cells were thawed and incubated in cell culture media (DMEM, 10% FBS, and 1% antibiotic cocktail) for 72 h. Cells were trypsinized, counted, and re-suspended to a concentration of 100,000 cells/mL in cell culture media. […]
METRIC: IC50

MOLECULE: N[C@@H]1CC=CC[C@H]1c1sc2c(NCc3ccccc3)cc(Cl)nc2c1I [Compound 345]
IC50: 0.03 to 0.3 µM

What measured IC50 goes with C/C=C/CNc1cc(Cl)nc2c(Cl)c([C@H]3CC=CC[C@@H]3N)sc12 [Compound 302] ? 0.03 to 0.3 µM

What measured IC50 goes with N[C@H]1CC=CC[C@@H]1c1sc2c(NCc3cccs3)cc(Cl)nc2c1I [Compound 176] ? ≤ 0.03 µM

What measured IC50 goes with N[C@H]1CCCO[C@@H]1c1sc2c(NCc3cccs3)cc(Cl)nc2c1Cl [Compound 18] ? ≤ 0.03 µM

What measured IC50 goes with [2H]C1=C([2H])C([2H])([2H])[C@H](c2sc3c(NCc4ccccc4)cc(Cl)nc3c2C)[C@@H](N)C1([2H])[2H] [Compound 292] ? 0.03 to 0.3 µM

What measured IC50 goes with CCc1c([C@@H]2CCCC[C@H]2N)sc2c(NCc3cccs3)cc(Cl)nc12 (single isomer, unassigned) [Compound 39] ? > 1 µM

Hello, the source for this data is patent US20250382305A1, in case you need it.
